# Tested on: T24 cell line
# run_description: MTT cytotoxicity assay, 48 h, alone and in combination (IC50 and Combination Index)
# Format: cell-based
# condition_summary: Homo sapiens, T-24, SEQ ID NO: 1 at 20 μg/mL; read-out: IC50 of Gemcitabine
observed_property: pIC50
// pIC50: -log10(molar conc.)

-- ask Give pIC50 for Nc1ccn([C@@H]2O[C@H](CO)[C@@H](O)C2(F)F)c(=O)n1 [Gemcitabine, reference compound]
-- reply 10.70

* * *

# Tested on: T24 cell line
# run_description: MTT cytotoxicity assay, 48 h, alone and in combination (IC50 and Combination Index)
# Assay type: cell-based
# condition_summary: SEQ ID NO: 1 at […]; read-out: IC50 of Cisplatin
observed_property: IC50
Write your answer as a measured quantity: the number, then the unit.

-- ask Give IC50 for N.N.[Cl][Pt][Cl] [Cisplatin, reference compound]
-- reply 22.9 µM
